meta.source: the NIST ThermoML archive (doi:10.1021/acs.jced.6b00269)

conditionSummary: 293.15 K; 101.33 kPa; Liquid; Vibrating tube method
Would you kindly list mass density for each of these compounds?
All answers are understood in kg/m3, so give the number only.

Notebook: CCC[n+]1ccn(C)c1C.O=[N+]([O-])c1cn[n-]c1 [1,2-dimethyl-3-propylimidazolium 4-nitropyrazolide] , mass density read as 1185.6

Notebook: CCCCCCCCSC(N(C)C)=[N+](C)C.O=S(=O)([N-]S(=O)(=O)C(F)(F)F)C(F)(F)F , mass density read as 1301

Notebook: CCCC[S+]1CCCC1.O=S(=O)([N-]S(=O)(=O)C(F)(F)F)C(F)(F)F , mass density read as 1459.7

Notebook: CCCCCCn1cc[n+](C)c1C.O=[N+]([O-])c1cn[n-]c1 [1-hexyl-2,3-dimethylimidazolium 4-nitropyrazolide] , mass density read as 1122.4

Notebook: CCCCCCCC[P+](CC)(CC)CC.O=[N+]([O-])c1c[n-]cn1 [triethyloctylphosphonium 4-nitroimidazolide] , mass density read as 1031.8

Notebook: CC(=O)[O-].CCCCCCn1cc[n+](C)c1 [3-hexyl-1-methylimidazolium acetate] , mass density read as 1019.6

Notebook: CCCCCCSC(N(C)C)=[N+](C)C.O=S(=O)([N-]S(=O)(=O)C(F)(F)F)C(F)(F)F , mass density read as 1343.4

Notebook: CCCCCCCC[P+](CC)(CC)CC.Cc1ncc([N+](=O)[O-])[n-]1 [triethyloctylphosphonium 2-methyl-5-nitroimidazolide] , mass density read as 1031.5

Notebook: CCCC[n+]1cccn1C.O=S(=O)([N-]S(=O)(=O)C(F)(F)F)C(F)(F)F [1-butyl-2-methylpyrazolium bis(trifluoromethylsulfonyl)imide] , mass density read as 1456

Notebook: CCCCCCn1cc[n+](C)c1.N#Cc1ccc[n-]1 [1-hexyl-3-methylimidazolium 2-cyanopyrrolide] , mass density read as 1024.9

* * *

conditionSummary: 308.15 K; 101.33 kPa; Liquid; Cone and plate viscometry
Would you kindly list viscosity for each of these compounds?
All answers are understood in mPa·s, so give the number only.

Notebook: CCCCCCC[P+](CC)(CC)CC.O=[N+]([O-])c1cn[n-]c1 [triethylheptylphosphonium 4-nitropyrazolide] , viscosity read as 126

Notebook: CCCC[S+]1CCCCC1.O=S(=O)([N-]S(=O)(=O)C(F)(F)F)C(F)(F)F [1-butylthianium bis(trifluoromethylsulfonyl)imide] , viscosity read as 70

Notebook: CCCC[P+](CC)(CC)CC.O=[N+]([O-])c1cn[n-]c1 [butyltriethylphosphonium 4-nitropyrazolide] , viscosity read as 108

* * *

Would you kindly list Glass transition temperature for each of these molecules?
conditionSummary: Glass; DSC
All answers are understood in °C, so give the number only.

Notebook: CCCC[S+]1CCCC1.O=S(=O)([N-]S(=O)(=O)C(F)(F)F)C(F)(F)F , Glass transition temperature read as -83

Notebook: CCCCCCCC[P+](CC)(CC)CC.O=[N+]([O-])c1cn[n-]c1 [triethyloctylphosphonium 4-nitropyrazolide] , Glass transition temperature read as -72

Notebook: CCC[n+]1ccn(C)c1C.O=[N+]([O-])c1cn[n-]c1 [1,2-dimethyl-3-propylimidazolium 4-nitropyrazolide] , Glass transition temperature read as -50

Notebook: CCCCCCCCCCCCCC[P+](CCCCCC)(CCCCCC)CCCCCC.O=[N+]([O-])c1c[n-]cn1 [trihexyl(tetradecyl)phosphonium 4-nitroimidazolide] , Glass transition temperature read as -66

* * *

conditionSummary: 313.15 K; 101.33 kPa; Liquid; Vibrating tube method
Would you kindly list mass density for each of these compounds?
All answers are understood in kg/m3, so give the number only.

Notebook: CCCCCCCCC[P+](CC)(CC)CC.O=[N+]([O-])c1cn[n-]c1 [triethylnonylphosphonium 4-nitropyrazolide] , mass density read as 1012.9

Notebook: CCCCCCCCCCCCCC[P+](CCCCCC)(CCCCCC)CCCCCC.N#Cc1nc[n-]c1C#N [trihexyl(tetradecyl)phosphonium 4,5-dicyanoimidazolide] , mass density read as 911

Notebook: CCCC[P+](CC)(CC)CC.O=[N+]([O-])c1cn[n-]c1 [butyltriethylphosphonium 4-nitropyrazolide] , mass density read as 1069.3

* * *

conditionSummary: 293.15 K; 101.33 kPa; Liquid; Vibrating tube method
measureName: mass density (kg/m3)
All answers are understood in kg/m3, so give the number only.

Notebook: CCCCCCC[P+](CC)(CC)CC.O=[N+]([O-])c1cn[n-]c1 [triethylheptylphosphonium 4-nitropyrazolide] , mass density read as 1040.9

Notebook: CC(=O)[O-].CCCCCCCCCCCCCC[P+](CCCCCC)(CCCCCC)CCCCCC [trihexyl(tetradecyl)phosphonium acetate] , mass density read as 888.9

Notebook: CCCC[P+](CC)(CC)CC.Cc1ncc([N+](=O)[O-])[n-]1 [butyltriethylphosphonium 2-methyl-5-nitroimidazolide] , mass density read as 1068.3

Notebook: CCCCCC[n+]1ccn(C)c1.O=S(=O)([N-]S(=O)(=O)C(F)(F)F)C(F)(F)F , mass density read as 1377.5

Notebook: CCCC[P+](CC)(CC)CC.O=[N+]([O-])c1cn[n-]c1 [butyltriethylphosphonium 4-nitropyrazolide] , mass density read as 1081.5

Notebook: CCCCCCCCCCCCCC[P+](CCCCCC)(CCCCCC)CCCCCC.O=[N+]([O-])c1cn[n-]c1 [trihexyl(tetradecyl)phosphonium 4-nitropyrazolide] , mass density read as 942.3

Notebook: CCCCCCCCC[P+](CC)(CC)CC.O=[N+]([O-])c1cn[n-]c1 [triethylnonylphosphonium 4-nitropyrazolide] , mass density read as 1024.9

* * *

conditionSummary: 308.15 K; 101.33 kPa; Liquid; Cone and plate viscometry
measureName: viscosity (mPa·s)
All answers are understood in mPa·s, so give the number only.

Notebook: CCCC[S+]1CCCC1.O=S(=O)([N-]S(=O)(=O)C(F)(F)F)C(F)(F)F , viscosity read as 59

Notebook: CC(=O)[O-].CCCCCCCCCCCCCC[P+](CCCCCC)(CCCCCC)CCCCCC [trihexyl(tetradecyl)phosphonium acetate] , viscosity read as 224

Notebook: CCCCCCCCCC[P+](CC)(CC)CC.O=[N+]([O-])c1cn[n-]c1 [decyltriethylphosphonium 4-nitropyrazolide] , viscosity read as 175

Notebook: CCCCCCCCSC(N(C)C)=[N+](C)C.O=S(=O)([N-]S(=O)(=O)C(F)(F)F)C(F)(F)F , viscosity read as 69

Notebook: CCCCCCCC[P+](CC)(CC)CC.O=[N+]([O-])c1cn[n-]c1 [triethyloctylphosphonium 4-nitropyrazolide] , viscosity read as 133

Notebook: CCCCCCCCCCCCCC[P+](CCCCCC)(CCCCCC)CCCCCC.O=[N+]([O-])c1c[n-]cn1 [trihexyl(tetradecyl)phosphonium 4-nitroimidazolide] , viscosity read as 396

Notebook: CC[P+](CC)(CC)COCCOC.Cc1ncc([N+](=O)[O-])[n-]1 , viscosity read as 83

* * *

conditionSummary: 353.15 K; 101.33 kPa; Liquid; Vibrating tube method
Would you kindly list mass density for each of these molecules?
All answers are understood in kg/m3, so give the number only.

Notebook: CCCCCCn1cc[n+](C)c1C.O=[N+]([O-])c1cn[n-]c1 [1-hexyl-2,3-dimethylimidazolium 4-nitropyrazolide] , mass density read as 1084.3

Notebook: CCCCCCCCCC[P+](CC)(CC)CC.O=[N+]([O-])c1cn[n-]c1 [decyltriethylphosphonium 4-nitropyrazolide] , mass density read as 978.8

Notebook: CCCCCCSC(N(C)C)=[N+](C)C.O=S(=O)([N-]S(=O)(=O)C(F)(F)F)C(F)(F)F , mass density read as 1291.3

Notebook: CC[P+](CC)(CC)COCCOC.O=[N+]([O-])c1cn[n-]c1 , mass density read as 1102.6

Notebook: CCCC[P+](CC)(CC)CC.O=[N+]([O-])c1cn[n-]c1 [butyltriethylphosphonium 4-nitropyrazolide] , mass density read as 1045.4

Notebook: CCCC[n+]1cccn1C.O=S(=O)([N-]S(=O)(=O)C(F)(F)F)C(F)(F)F [1-butyl-2-methylpyrazolium bis(trifluoromethylsulfonyl)imide] , mass density read as 1400

Notebook: CCC[n+]1ccn(C)c1C.O=[N+]([O-])c1cn[n-]c1 [1,2-dimethyl-3-propylimidazolium 4-nitropyrazolide] , mass density read as 1146.4

Notebook: CCCCCCCCCCCCCC[P+](CCCCCC)(CCCCCC)CCCCCC.Clc1nc[n-]c1Cl [trihexyl(tetradecyl)phosphonium 4,5-dichloroimidazolide] , mass density read as 931.3

Notebook: CC(=O)[O-].CCCCCCCCCCCCCC[P+](CCCCCC)(CCCCCC)CCCCCC [trihexyl(tetradecyl)phosphonium acetate] , mass density read as 852.7

Notebook: CCCCCCC[P+](CC)(CC)CC.O=[N+]([O-])c1cn[n-]c1 [triethylheptylphosphonium 4-nitropyrazolide] , mass density read as 1006

Notebook: CCCCCCCCCCCCCC[P+](CCCCCC)(CCCCCC)CCCCCC.O=[N+]([O-])c1c[n-]cn1 [trihexyl(tetradecyl)phosphonium 4-nitroimidazolide] , mass density read as 908.3

Notebook: CCCCCCCCC[P+](CC)(CC)CC.O=[N+]([O-])c1cn[n-]c1 [triethylnonylphosphonium 4-nitropyrazolide] , mass density read as 989.5

Notebook: CCCCCCn1cc[n+](C)c1.O=[N+]([O-])c1cn[n-]c1 [1-hexyl-3-methylimidazolium 4-nitropyrazolide] , mass density read as 1087.9

Notebook: CCC=Cn1cc[n+](C)c1C.O=[N+]([O-])c1cn[n-]c1 [1-but-1-enyl-2,3-dimethylimidazolium 4-nitropyrazolide] , mass density read as 1145.2

Notebook: CCCC[S+]1CCCC1.O=S(=O)([N-]S(=O)(=O)C(F)(F)F)C(F)(F)F , mass density read as 1404.6

Notebook: CCCCCCCC[P+](CC)(CC)CC.O=[N+]([O-])c1cn[n-]c1 [triethyloctylphosphonium 4-nitropyrazolide] , mass density read as 998.6

Notebook: CCCC[P+](CC)(CC)CC.Cc1ncc([N+](=O)[O-])[n-]1 [butyltriethylphosphonium 2-methyl-5-nitroimidazolide] , mass density read as 1033.5

Notebook: CC[P+](CC)(CC)COCCOC.O=S(=O)([N-]S(=O)(=O)C(F)(F)F)C(F)(F)F , mass density read as 1311.5

Notebook: CCCCCCCCCCCCCC[P+](CCCCCC)(CCCCCC)CCCCCC.Cc1ncc([N+](=O)[O-])[n-]1 [trihexyl(tetradecyl)phosphonium 2-methyl-5-nitroimidazolide] , mass density read as 906.8

Notebook: CCCCCCCC[P+](CC)(CC)CC.O=S(=O)([N-]S(=O)(=O)C(F)(F)F)C(F)(F)F [triethyloctylphosphonium bis(trifluoromethylsulfonyl)imide] , mass density read as 1200.5

Notebook: CCCCCCCCCCCCCC[P+](CCCCCC)(CCCCCC)CCCCCC.N#Cc1nc[n-]c1C#N [trihexyl(tetradecyl)phosphonium 4,5-dicyanoimidazolide] , mass density read as 888.2

Notebook: CCCCCCCC[P+](CC)(CC)CC.O=[N+]([O-])c1c[n-]cn1 [triethyloctylphosphonium 4-nitroimidazolide] , mass density read as 997.1

Notebook: CCCCCC[n+]1ccn(C)c1.O=S(=O)([N-]S(=O)(=O)C(F)(F)F)C(F)(F)F , mass density read as 1323.5

Notebook: CCCCCCCCCCCCCC[P+](CCCCCC)(CCCCCC)CCCCCC.O=S(=O)([N-]S(=O)(=O)C(F)(F)F)C(F)(F)F , mass density read as 1026

Notebook: CCCCCCCC[P+](CC)(CC)CC.Cc1ncc([N+](=O)[O-])[n-]1 [triethyloctylphosphonium 2-methyl-5-nitroimidazolide] , mass density read as 997.1

Notebook: CCCCCCCCCCCCCC[P+](CCCCCC)(CCCCCC)CCCCCC.O=[N+]([O-])c1cn[n-]c1 [trihexyl(tetradecyl)phosphonium 4-nitropyrazolide] , mass density read as 907
